- tested on: DNA topoisomerase 1 (Homo sapiens) (UniProt P11387)
- Sequence (P11387 whole entry): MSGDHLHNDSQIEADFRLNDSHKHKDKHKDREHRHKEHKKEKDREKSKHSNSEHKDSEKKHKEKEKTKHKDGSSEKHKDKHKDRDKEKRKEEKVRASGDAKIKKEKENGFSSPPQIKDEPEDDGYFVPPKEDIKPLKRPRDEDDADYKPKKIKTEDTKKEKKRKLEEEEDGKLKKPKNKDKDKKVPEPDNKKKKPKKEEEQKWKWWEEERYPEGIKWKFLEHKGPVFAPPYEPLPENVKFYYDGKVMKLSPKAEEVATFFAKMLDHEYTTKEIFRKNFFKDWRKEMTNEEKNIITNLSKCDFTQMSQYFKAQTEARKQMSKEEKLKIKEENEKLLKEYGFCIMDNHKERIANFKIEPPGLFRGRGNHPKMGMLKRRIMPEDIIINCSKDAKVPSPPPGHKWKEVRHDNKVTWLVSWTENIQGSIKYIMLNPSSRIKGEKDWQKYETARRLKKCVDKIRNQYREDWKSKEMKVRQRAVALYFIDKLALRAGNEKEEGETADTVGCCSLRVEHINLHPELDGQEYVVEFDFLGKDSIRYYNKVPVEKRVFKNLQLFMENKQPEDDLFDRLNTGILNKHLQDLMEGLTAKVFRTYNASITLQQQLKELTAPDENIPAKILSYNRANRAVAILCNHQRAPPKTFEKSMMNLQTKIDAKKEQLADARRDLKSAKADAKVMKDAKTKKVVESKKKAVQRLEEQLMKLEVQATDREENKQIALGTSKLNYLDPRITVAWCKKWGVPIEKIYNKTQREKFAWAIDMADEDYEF
- procedure summary: Inhibition of recombinant human topoisomerase 1-mediated relaxation of supercoiled pBR322 DNA at 100 uM measured after 30 mins by ethidium bromide staining based agarose gel electrophoresis relative to control
measure: inhibition (%)

>>> df
                                   compound  numeric_readout
0  Oc1ccc2c(c1)-c1nc(-c3cccc(Cl)c3)cc(-c3ccccc3O)c1C2             22.9

P. Oc1ccc(-c2cc(-c3cccc(F)c3)nc3c2Cc2ccc(O)cc2-3)cc1
Q. Oc1ccc(-c2cc(-c3cccc(C(F)(F)F)c3)nc3c2Cc2c(O)cccc2-3)cc1
R. Oc1ccccc1-c1cc(-c2cccc(F)c2)nc2c1Cc1c(O)cccc1-2
Highest inhibition first, then in falling order down to the smallest. Give me the labels in the order the question wants.
Q, P, R
(Q: 9.4%, P: 3%, R: 0%)

* * *

- tested on: UniProt:P11388
- Sequence (P11388 whole entry): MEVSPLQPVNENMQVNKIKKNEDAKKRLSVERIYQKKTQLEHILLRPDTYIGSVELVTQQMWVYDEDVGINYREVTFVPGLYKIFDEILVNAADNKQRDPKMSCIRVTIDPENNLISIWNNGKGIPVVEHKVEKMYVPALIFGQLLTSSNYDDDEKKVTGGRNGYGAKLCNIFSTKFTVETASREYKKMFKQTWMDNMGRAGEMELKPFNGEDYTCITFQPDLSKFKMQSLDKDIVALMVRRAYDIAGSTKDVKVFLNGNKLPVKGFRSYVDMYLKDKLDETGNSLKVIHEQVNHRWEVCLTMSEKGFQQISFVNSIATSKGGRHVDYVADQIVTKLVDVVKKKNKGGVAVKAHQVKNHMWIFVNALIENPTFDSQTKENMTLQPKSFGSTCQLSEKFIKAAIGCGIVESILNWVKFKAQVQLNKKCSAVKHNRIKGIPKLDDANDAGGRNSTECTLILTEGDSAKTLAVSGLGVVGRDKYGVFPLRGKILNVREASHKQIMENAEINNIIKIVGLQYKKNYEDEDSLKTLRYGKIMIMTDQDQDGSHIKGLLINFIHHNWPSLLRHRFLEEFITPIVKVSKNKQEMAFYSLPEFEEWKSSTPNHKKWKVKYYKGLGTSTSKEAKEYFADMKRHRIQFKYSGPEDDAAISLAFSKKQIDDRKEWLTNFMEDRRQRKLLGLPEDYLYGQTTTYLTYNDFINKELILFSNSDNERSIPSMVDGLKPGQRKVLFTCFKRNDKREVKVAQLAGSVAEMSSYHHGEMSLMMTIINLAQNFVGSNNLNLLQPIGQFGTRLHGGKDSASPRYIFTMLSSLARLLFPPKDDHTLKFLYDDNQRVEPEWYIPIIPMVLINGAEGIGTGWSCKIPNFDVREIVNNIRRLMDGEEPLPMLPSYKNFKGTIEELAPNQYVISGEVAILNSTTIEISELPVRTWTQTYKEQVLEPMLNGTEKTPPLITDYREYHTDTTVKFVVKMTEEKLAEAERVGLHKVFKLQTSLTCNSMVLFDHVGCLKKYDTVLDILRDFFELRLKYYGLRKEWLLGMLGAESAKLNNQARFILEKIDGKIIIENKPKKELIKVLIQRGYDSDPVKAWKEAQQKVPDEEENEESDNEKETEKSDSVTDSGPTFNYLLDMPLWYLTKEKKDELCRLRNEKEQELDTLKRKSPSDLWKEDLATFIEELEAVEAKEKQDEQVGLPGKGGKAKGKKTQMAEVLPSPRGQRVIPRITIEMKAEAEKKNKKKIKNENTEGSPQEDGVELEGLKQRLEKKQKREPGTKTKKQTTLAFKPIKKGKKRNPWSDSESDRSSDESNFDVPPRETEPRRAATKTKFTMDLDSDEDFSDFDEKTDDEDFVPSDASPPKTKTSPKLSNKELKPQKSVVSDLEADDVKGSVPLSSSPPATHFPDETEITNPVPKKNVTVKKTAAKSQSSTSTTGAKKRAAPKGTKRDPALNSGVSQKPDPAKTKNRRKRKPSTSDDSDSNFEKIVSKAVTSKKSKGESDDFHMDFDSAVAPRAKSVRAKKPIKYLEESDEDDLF
- procedure summary: Inhibition of recombinant human topoisomerase 2alpha-mediated relaxation of supercoiled pBR322 DNA at 100 uM measured after 30 mins by ethidium bromide staining based agarose gel electrophoresis relative to control
measure: inhibition (%)

In [3]: df
Out[3]:
                                   compound     measure  numeric_readout
0  Oc1cccc(-c2cc(-c3cccc(Cl)c3)nc3c2Cc2c(O)cccc2-3)c1  inhibition              100

A. Oc1ccc(-c2cc(-c3ccc(Cl)cc3)nc3c2Cc2ccc(O)cc2-3)cc1
B. Oc1ccc(-c2cc(-c3cccc(F)c3)nc3c2Cc2c(O)cccc2-3)cc1
C. Oc1cccc(-c2cc(-c3ccc(F)cc3)nc3c2Cc2c(O)cccc2-3)c1
D. Oc1ccc(-c2cc(-c3ccccc3)nc3c2Cc2ccc(O)cc2-3)cc1
Ascending sort, inhibition. Give me the labels in the order the question wants.
B, D, C, A

1. Oc1ccc(-c2cc(-c3ccccc3Cl)c3c(n2)-c2c(O)cccc2C3)cc1
2. Oc1ccccc1-c1cc(-c2ccc(F)cc2)nc2c1Cc1cccc(O)c1-2
# compare inhibition for 1 vs 2 ; return the one with the smaller value Write the label of whichever entry you select.
2
(2: 34.4%, 1: 66.9%)

* * *

- procedure summary: Stability in human plasma assessed as parent compound remaining at 1 mM measured after 1 hr by LC-MS/MS analysis
- Type: ADME, cell-free
- study conditions: read-out: Stability
measure: remaining at 1 h (%)
Unit % implied. Number only.

Recorded remaining at 1 h of Oc1ccc(-c2cc(-c3ccccc3Cl)nc3c2Cc2c(O)cccc2-3)cc1 , please.
104

* * *

- tested on: DNA topoisomerase 1 (Homo sapiens) (UniProt P11387)
- procedure summary: Inhibition of recombinant human topoisomerase 1-mediated relaxation of supercoiled pBR322 DNA at 100 uM measured after 30 mins by ethidium bromide staining based agarose gel electrophoresis relative to control
measure: inhibition (%)

Worked examples follow.
>>> print(df.to_string())
                                   compound  numeric_readout
0  Oc1ccc2c(c1)Cc1c(-c3ccccc3)cc(-c3ccccc3O)nc1-2                2
1  Oc1cccc(-c2cc(-c3ccccc3C(F)(F)F)nc3c2Cc2c(O)cccc2-3)c1             65.7
2  Oc1ccc(-c2cc(-c3cccc(Cl)c3)c3c(n2)-c2ccc(O)cc2C3)cc1              8.8
3  Oc1cccc(-c2cc(-c3ccccc3Cl)nc3c2Cc2c(O)cccc2-3)c1                0
4  Oc1ccc(-c2cc(-c3ccccc3)nc3c2Cc2cccc(O)c2-3)cc1             10.2
5  Oc1ccccc1-c1cc(-c2cccc(Cl)c2)c2c(n1)-c1cccc(O)c1C2                0
6  Oc1ccc(-c2cc(-c3ccc(C(F)(F)F)cc3)nc3c2Cc2c(O)cccc2-3)cc1             32.8
7  Oc1cccc(-c2cc(-c3cccc(C(F)(F)F)c3)nc3c2Cc2c(O)cccc2-3)c1              5.6

I. Oc1cccc(-c2cc(-c3ccccc3F)nc3c2Cc2cccc(O)c2-3)c1
II. Oc1ccc2c(c1)-c1nc(-c3ccccc3O)cc(-c3cccc(Cl)c3)c1C2
Choose between I and II : whose measured inhibition value is numerically larger? Write the label of whichever entry you select.
I

Origin of measurements: ChEMBL document CHEMBL4373715
